measurement target: thrombin receptor (PAR-1) (Homo sapiens)
Construct: CHRF membranes (Jones, Biochim. Biophys. Acta 1992, 1136, 272) are thawed from −70° C; endogenous in cells
Sequence (P25116 22-425): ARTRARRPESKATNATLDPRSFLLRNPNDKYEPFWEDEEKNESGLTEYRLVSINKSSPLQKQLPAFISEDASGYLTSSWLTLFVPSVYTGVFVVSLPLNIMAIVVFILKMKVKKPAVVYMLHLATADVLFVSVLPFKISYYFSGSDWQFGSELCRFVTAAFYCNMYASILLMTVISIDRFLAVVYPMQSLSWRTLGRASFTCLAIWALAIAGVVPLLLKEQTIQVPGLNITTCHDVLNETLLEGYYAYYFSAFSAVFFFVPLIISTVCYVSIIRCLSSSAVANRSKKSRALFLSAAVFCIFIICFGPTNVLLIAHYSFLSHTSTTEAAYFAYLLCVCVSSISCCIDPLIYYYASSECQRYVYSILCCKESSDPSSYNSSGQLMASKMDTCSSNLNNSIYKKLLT
protocol: In vitro thrombin receptor binding assay (CHRF membranes)
condition info: tritiated 721-40 radioligand, read-out: Bndg IC50 (Thrombin receptor binding)
Measured IC50, listed per entry.
Form entry: value (nM) — number only.

Reference set (2 entries):
COc1ccc(C[C@H](NC(=O)Nc2ccc3c(CN4CCCCC4)cn(Cc4ccc(F)cc4)c3c2)C(=O)N[C@@H](CCCNC(=N)N)C(=O)NCC2CCCCC2)cc1: 2300
CCOc1ccc(C[C@H](NC(=O)Nc2ccc3c(CN4CCCC4)cn(Cc4cccc(C)c4)c3c2)C(=O)N[C@@H](CCCNC(=N)N)C(=O)NCc2ccccc2)cc1: 2000

Then this molecule:
Return reported IC50; argument: NCCNC(=O)[C@H](Cc1cccs1)NC(=O)[C@H](Cc1ccc(Cl)cc1)NC(=O)c1ccc2c(CN3CCCC3)cn(Cc3c(Cl)cccc3Cl)c2c1
620

* * *

measurement target: thrombin receptor (PAR-1) (Homo sapiens)
Construct: CHRF membranes (Jones, Biochim. Biophys. Acta 1992, 1136, 272) are thawed from −70° C; endogenous in cells
protocol: In vitro thrombin receptor binding assay (CHRF membranes)
condition info: tritiated 721-40 radioligand, read-out: Bndg IC50 (Thrombin receptor binding)
Description: In Vitro Thrombin Receptor Binding Assay CHRF membranes (Jones, Biochim. Biophys. Acta 1992, 1136, 272) are thawed from −70° C., centrifuged at maximum speed for 5 min, washed twice with binding buffer (50 mM HEPES containing 5 mM MgCl2 and 0.1% BSA), and re-suspended in binding buffer (25 μg/[…]). 100 μL of membranes are added to the 24-Wallac plates and delivered to the Tomtech apparatus. […] The bags are sealed, placed in filter cassettes (Wallac 1450-104), and analyzed on the microbeta counter. […]
Reported pIC50 values for a set of compounds
Scale for pIC50: -log10 of concentration given in mol/L; no unit attached.

Sample answers from the record:
CSCC[C@H](NC(=O)[C@H](Cc1ccc(F)c(F)c1)NC(=O)Nc1ccc2c(CN3CCCC3)cn(Cc3c(Cl)cccc3Cl)c2c1)C(=O)NCCN: 7.70
NCCNC(=O)[C@H](Cc1cccs1)NC(=O)[C@H](Cc1ccc(Cl)cc1)NC(=O)Nc1ccc2c(CN3CCCC3)cn(Cc3c(Cl)cccc3Cl)c2c1: 5.96
COc1ccccc1CCNC(=O)[C@H](CCCNC(=N)N)NC(=O)[C@H](Cc1ccc(F)c(F)c1)NC(=O)Nc1ccc2c(CN3CCCC3)cn(Cc3ccccc3C)c2c1: 6.66
CN(Cc1cn(Cc2c(Cl)cccc2Cl)c2cc(NC(=O)N[C@@H](Cc3ccc(Cl)cc3)C(=O)N[C@@H](CCCN)C(=O)NCCc3ccccc3Cl)ccc12)C1CCCC1: 5.21
Cc1coc(CNC(=O)[C@H](CCN)NC(=O)[C@H](Cc2ccc(F)c(F)c2)NC(=O)Nc2ccc3c(CN4CCCC4)cn(Cc4c(Cl)cccc4Cl)c3c2)c1: 6.15

Notebook: pull reported pIC50 for thrombin receptor (PAR-1) (Homo sapiens), entry NCCC[C@H](NC(=O)[C@H](Cc1ccc(F)c(F)c1)NC(=O)Nc1ccc2c(CN3CCCC3)cn(Cc3c(Cl)cccc3Cl)c2c1)C(=O)Nc1ccccc1
5.62

Let us now turn to COc1ccc(C[C@H](NC(=O)Nc2ccc3c(CN4CCCC4)cn(Cc4ccc(Cl)cc4)c3c2)C(=O)N[C@@H](CCCNC(=N)N)C(=O)NCc2ccccc2)cc1
5.80

Also need COc1ccc(C[C@H](NC(=O)Nc2ccc3c(CNCCCN4CCCC4)cn(Cc4ccc(F)cc4)c3c2)C(=O)N[C@@H](CCCNC(=N)N)C(=O)NCc2ccccc2)cc1 , thanks.
5.27

Repeat for the following compound: NCCNC(=O)[C@H](Cc1ccncc1)NC(=O)[C@H](Cc1ccc(F)c(F)c1)NC(=O)c1ccc2c(CN3CCCC3)cn(Cc3c(Cl)cccc3Cl)c2c1
7.05

Entry to check: NC(N)=NCCC[C@H](NC(=O)[C@H](Cc1cccc(F)c1)NC(=O)Nc1ccc2c(CN3CCC(=O)CC3)cn(Cc3c(Cl)cccc3Cl)c2c1)C(=O)NCc1ccccc1
5.77

Moving on to the next compound: N=C(N)NCCC[C@H](NC(=O)[C@H](Cc1ccccc1F)NC(=O)Nc1ccc2c(CN3CCCC3)cn(Cc3c(Cl)cccc3Cl)c2c1)C(=O)NCc1ccccc1
6.10
